Where these numbers come from: patent US4342762A

# assay-procedure: acute oral toxicity, graphic method of Litchfield-Wilcoxon, 4 days observation
# applied-conditions: mouse, in vivo; oral, 20 ml/kg, both sexes 18-24 g, 4 days observation
observable: LD50 at 96 h (mg/kg)
Reply numerically in mg/kg, unit not repeated.

Supply recorded LD50 at 96 h for COc1ccc(C2(OCCCN(C)C)CC3CCC2(C)C3(C)C)cc1 (racemic) [Example 22] here.
1000

Supply recorded LD50 at 96 h for CCN(CC)CCOC1(c2cccs2)CC2CCC1(C)C2(C)C (racemic) [Example 17] here.
980

Supply recorded LD50 at 96 h for CN(C)CCCOC1(Cc2ccccc2)CC2CCC1(C)C2(C)C (single isomer, unassigned) [Example 7] here.
1200

Supply recorded LD50 at 96 h for CCN(CC)CCCOC1(Cc2ccccc2)CC2CCC1(C)C2(C)C (racemic) [Example 6] here.
2000

Supply recorded LD50 at 96 h for CN(C)CCOC1(c2ccccc2)CC2CCC1(C)C2(C)C (racemic) [Example 15] here.
900

Supply recorded LD50 at 96 h for CN(C)CCCOC1(Cc2ccc(Cl)cc2)CC2CCC1(C)C2(C)C (racemic) [Example 11] here.
1500

Supply recorded LD50 at 96 h for CN(C)CCCOC1(Cc2ccccc2)CC2CCC1(C)C2(C)C (racemic) [Example 1] here.
1600

Supply recorded LD50 at 96 h for CC(C)N(CCOC1(Cc2ccccc2)CC2CCC1(C)C2(C)C)C(C)C (racemic) [Example 3] here.
1250

Supply recorded LD50 at 96 h for CC(C)N(CCCOC1(Cc2ccccc2)CC2CCC1(C)C2(C)C)C(C)C (racemic) [Example 5] here.
2000

Supply recorded LD50 at 96 h for CC1(C)C2CCC1(C)C(Cc1ccccc1)(OCCCN1CCN(Cc3ccccc3)CC1)C2 (racemic) [Example 4] here.
2000

Supply recorded LD50 at 96 h for CCN(CC)CCCOC1(c2ccccc2)CC2CCC1(C)C2(C)C (racemic) [Example 16] here.
700

Supply recorded LD50 at 96 h for CCN(CC)CCOC1(Cc2ccc(Cl)cc2)CC2CCC1(C)C2(C)C (racemic) [Example 12] here.
2000

Supply recorded LD50 at 96 h for CN(C)CCCOC1(c2ccccc2)CC2CCC1(C)C2(C)C (racemic) [Example 14] here.
1000

Supply recorded LD50 at 96 h for CCN(CC)CCOC1(Cc2ccccc2)CC2CCC1(C)C2(C)C (single isomer, unassigned) [Example 8] here.
850

Supply recorded LD50 at 96 h for CC(COC1(Cc2ccccc2)CC2CCC1(C)C2(C)C)CN(C)C (racemic) [Example 2] here.
1700

* * *

# Tested on: white mice
# assay-procedure: inhibition of pentetrazole convulsion (modified Banziger and Hane)
# Format: in vivo
# applied-conditions: therapeutic index, pentetrazole convulsion
The threshold is inclusive: Inhibition of pentetrazole convulsion Th. I. of exactly 20 counts as criterion met; values below receive criterion not met.

Kindly determine if Inhibition of pentetrazole convulsion Th. I. recorded for CC(COC1(c2ccc(Cl)cc2)CC2CCC1(C)C2(C)C)CN(C)C (single isomer, unassigned; (+)) is above or exactly 20.
criterion not met

Kindly determine if Inhibition of pentetrazole convulsion Th. I. recorded for CC(COC1(Cc2ccccc2)CC2CCC1(C)C2(C)C)CN(C)C (racemic) is above or exactly 20.
criterion not met

Kindly determine if Inhibition of pentetrazole convulsion Th. I. recorded for CCN(CC)CCCOC1(c2ccccc2)CC2CCC1(C)C2(C)C (racemic) is above or exactly 20.
criterion not met

Kindly determine if Inhibition of pentetrazole convulsion Th. I. recorded for CC(C)N(CCCOC1(Cc2ccccc2)CC2CCC1(C)C2(C)C)C(C)C (racemic) is above or exactly 20.
criterion not met

Kindly determine if Inhibition of pentetrazole convulsion Th. I. recorded for CN(C)CCCOC1(Cc2ccccc2)CC2CCC1(C)C2(C)C (single isomer, unassigned) is above or exactly 20.
criterion not met

Kindly determine if Inhibition of pentetrazole convulsion Th. I. recorded for CCN(CC)CCCOC1(Cc2ccccc2)CC2CCC1(C)C2(C)C (racemic) is above or exactly 20.
criterion met

Kindly determine if Inhibition of pentetrazole convulsion Th. I. recorded for CCN(CC)CCOC1(Cc2ccccc2)CC2CCC1(C)C2(C)C (single isomer, unassigned) is above or exactly 20.
criterion met

Kindly determine if Inhibition of pentetrazole convulsion Th. I. recorded for CCN(CC)CCOC1(Cc2ccc(Cl)cc2)CC2CCC1(C)C2(C)C (racemic) is above or exactly 20.
criterion not met

* * *

# Tested on: white mice
# assay-procedure: inhibition of pentetrazole convulsion (modified Banziger and Hane)
# Format: in vivo
# applied-conditions: therapeutic index, pentetrazole convulsion
observable: Inhibition of pentetrazole convulsion Th. I.
Reply with the value as a number alone.

Lab note: record Inhibition of pentetrazole convulsion Th. I. of CCN(CC)CCOC1(c2cccs2)CC2CCC1(C)C2(C)C (racemic) tested on white mice.
16.3

Lab note: record Inhibition of pentetrazole convulsion Th. I. of CN1C(=O)OC(C)(C)C1=O [Trimethadion, 3,5,5-Trimethyl-2,4-oxazolidinedione, reference compound] tested on white mice.
5.3

Lab note: record Inhibition of pentetrazole convulsion Th. I. of COc1ccc(C2(OCCCN(C)C)CC3CCC2(C)C3(C)C)cc1 (racemic) tested on white mice.
10.4

* * *

# System: white mice
# assay-procedure: inhibition of motility, Dews apparatus (Borsy)
# Type: in vivo
# applied-conditions: therapeutic index, motility
Consider the following compounds; for each one, report its Inhibition of motility Th.I..
Reply with the value as a number alone.

Supply recorded Inhibition of motility Th.I. for CN(C)CCCOC1(Cc2ccccc2)CC2CCC1(C)C2(C)C (single isomer, unassigned) [Example 7] here.
13.3

Supply recorded Inhibition of motility Th.I. for CN(C)CCCOC1(c2ccccc2)CC2CCC1(C)C2(C)C (racemic) [Example 14] here.
26.3

Supply recorded Inhibition of motility Th.I. for CN(C)CCCOC1(Cc2ccc(Cl)cc2)CC2CCC1(C)C2(C)C (racemic) [Example 11] here.
11.5

Supply recorded Inhibition of motility Th.I. for CCN(CC)CCCOC1(Cc2ccccc2)CC2CCC1(C)C2(C)C (racemic) [Example 6] here.
20.0

Supply recorded Inhibition of motility Th.I. for CC(C)N(CCCOC1(Cc2ccccc2)CC2CCC1(C)C2(C)C)C(C)C (racemic) [Example 5] here.
10.5

Supply recorded Inhibition of motility Th.I. for CC(COC1(c2ccc(Cl)cc2)CC2CCC1(C)C2(C)C)CN(C)C (single isomer, unassigned; (+)) [Example 13] here.
11.8

Supply recorded Inhibition of motility Th.I. for CN(C)CCCOC1(Cc2ccccc2)CC2CCC1(C)C2(C)C (racemic) [Example 1] here.
14.5

Supply recorded Inhibition of motility Th.I. for COc1ccc(C2(OCCCN(C)C)CC3CCC2(C)C3(C)C)cc1 (racemic) [Example 22] here.
10.0

Supply recorded Inhibition of motility Th.I. for CCN(CC)CCOC1(Cc2ccccc2)CC2CCC1(C)C2(C)C (single isomer, unassigned) [Example 8] here.
14.2
